Assay: qHTS for Inhibitors of Plasmodium falciparum (GB4) proliferation (AID 504315); further: nearly all actives have a fitted effect of over 50% in size
Settings: P. falciparum GB4 in erythrocytes, SYBR Green DNA, 72 h; series mostly up to 6.7 µM
Excerpt: Plasmodium falciparum is a virulent malarial parasite that kills 1-2 million people worldwide each year. Malaria not only inflicts tremendous suffering and morbidity on the human population, but has dramatically influenced the course of civilization with profound sociological and economic implications (Shah, S. 2010). […] Because mature erythrocytes lack DNA, only Plasmodium-derived DNA is detected. […]
Records with an inconclusive call do not appear. Activity calls are given as the source filed them. The call rests on the fitted dose curve; in most records, active means well fitted inhibition curve with a large enough effect; inconclusive means small, poorly fitted or top-dose-only effect, or effect the other way; inactive means flat fitted curve, though single readings scatter.
resultType: outcome

[[record]]
molecule = "CCCCCCCC1=CC2=CC(=O)C(C)(OC(C)=O)C(=O)C2=CN1CCc1ccccc1 (stereo not given)"
observedmeasurement = "inactive"

[[record]]
molecule = "CCOC(=O)C1=CN(CCNC(=O)OC(C)(C)C)C(=O)NC1c1ccccc1 (stereo not given)"
observedmeasurement = "inactive"

[[record]]
molecule = "CC(=O)C1=C(C)N(Cc2ccccc2)C(=O)NC1c1ccc(Br)cc1 (stereo not given)"
observedmeasurement = "inactive"

[[record]]
molecule = "CC1=CC[C@@H](C)O[C@@]2(C1)C(=O)Nc1cccc(Br)c12"
observedmeasurement = "inactive"


Shift focus to the following entry.
// lookup outcome for COC(=O)N[C@H](CC(C)=O)c1ccc(F)cc1
inactive

====

Experiment: qHTS for Inhibitors of Plasmodium falciparum (7G8) proliferation (AID 504316); further: nearly all actives have a fitted effect of over 65% in size
Conditions: P. falciparum 7G8 in erythrocytes, SYBR Green DNA, 72 h; series mostly up to 6.7 µM
Inconclusive results are not listed. Activity calls are given as the source filed them. Calls come from the whole dose curve; as a rule, active = well fitted inhibition curve with a large enough effect; inconclusive = small, poorly fitted or top-dose-only effect; inactive = flat fitted curve, though single readings scatter.
The categories you may choose from are Yes (active), No (inactive)

[[record]]
molecule = "Cc1ccccc1Nc1oc(-c2ccccc2)nc1-c1ccccc1"
assignedclass = "Yes"


Continue with the next molecule.
Given C=CCOC(=O)C(C(C)=O)[C@@H](NC(=O)OC)c1cccc(F)c1 (stereo not given in full) , state the outcome it received in this test.
No

====

Test system: OV90
Test: Primary qHTS to identify gynecologic anti-cancer compounds using libraries of approved drugs and bioactive compounds (AID 1345084); further: nearly all actives have a fitted effect of over 55% in size
Conditions: Gynecologic cancer cell panel viability, ATPlite luminescence, 48 h; series mostly up to 57.5 µM
Records with an inconclusive call do not appear. Activity calls are given as the source filed them. Calls follow the shape of the dose curve; as a rule, active = well fitted cell-killing curve with a large enough effect; inconclusive = small, poorly fitted or top-dose-only effect, or effect the other way; inactive = flat fitted curve, though single readings scatter.
resultType: outcome

[[record]]
mol = "CC[C@H]1OC(=O)[C@H](C)[C@@H](O[C@H]2C[C@@](C)(OC)[C@@H](O)[C@H](C)O2)[C@H](C)[C@@H](O[C@@H]2O[C@H](C)C[C@H](N(C)C)[C@H]2O)[C@](C)(O)C[C@@H](C)/C(=N/OCOCCOC)[C@H](C)[C@@H](O)[C@]1(C)O"
resulttype = "outcome"
observedmeasurement = "inactive"

[[record]]
mol = "CNCc1ccc(C)c(NC(=O)c2ccc(Nc3nc(-c4ccccc4)c4ccccc4n3)cc2)c1"
resulttype = "outcome"
observedmeasurement = "inactive"

[[record]]
mol = "Cc1ccc(C(=O)N2CCN(c3ccc([N+](=O)[O-])cc3)CC2)cc1Cl"
resulttype = "outcome"
observedmeasurement = "inactive"


====

System: CP192
Experiment: qHTS profiling for inhibitors of Plasmodium falciparum proliferation (AID 504749); further: nearly all actives have a fitted effect of over 60% in size
Details: P. falciparum in erythrocytes, SYBR Green DNA, 72 h; series mostly up to 28.7 µM
Inconclusive results are not listed. The source made the active and inactive calls. Calls follow the shape of the dose curve; as a rule, active = well fitted inhibition curve with a large enough effect; inconclusive = small, poorly fitted or top-dose-only effect; inactive = flat fitted curve, though single readings scatter.
Respond with a class label; see active, inactive

[[record]]
compound = "CC(C)C[C@@H](NC(=O)[C@H](Cc1ccccc1)NC(=O)c1cnccn1)B(O)O"
assignedclass = "active"

[[record]]
compound = "CCCCC(=O)N(Cc1ccc(-c2ccccc2-c2nn[nH]n2)cc1)C(C(=O)O)C(C)C (centres undefined)"
assignedclass = "inactive"

[[record]]
compound = "O=C(CC1NCCC[C@H]1O)Cn1cnc2cc(Br)c(Cl)cc2c1=O (some centres undefined)"
assignedclass = "active"


Hello, I am checking results. What call was entered for O=C1c2cccc3c2[C@@H](CCC3)CN1[C@@H]1CN2CCC1CC2 ?
inactive

====

Assay: qHTS drug screen for cell cycle checkpoint inhibitors in PARPi-resistant BRCA-mutant ovarian cancer cell lines. (AID 1963452)
Conditions: PEO1/OlaR viability, CellTiter-Glo luminescence, 96 h; active compounds read low
With a cut-off of -0.5, any Z-AUC strictly below it is called True; any Z-AUC meeting it or above is called False.

Example results:
[[record]]
molecule = "O=C(c1ccc(F)c(F)c1Nc1ccc(I)cc1F)N1CC(O)([C@@H]2CCCCN2)C1"
assignedclass = "True"

[[record]]
molecule = "CC(=O)Nc1ccc(C(=O)NC(C)(C)C)cc1"
assignedclass = "False"

[[record]]
molecule = "CN1CCN(c2nc(C3=C(c4c[nH]c5ccccc45)C(=O)NC3=O)c3ccccc3n2)CC1"
assignedclass = "False"

[[record]]
molecule = "NC1CCCN(c2c(/C=C3\\SC(=O)NC3=O)cccc2-c2ccccc2)C1 (centres undefined)"
assignedclass = "True"

[[record]]
molecule = "N#C/C(=C(/N)Sc1ccc(N)cc1)c1ccccc1C(F)(F)F"
assignedclass = "True"


Find out if reported Z-AUC for C[C@@H](Nc1cc(F)cc(F)c1)c1cc(C(=O)N(C)C)cc2c(=O)cc(N3CCOCC3)oc12 is less than -0.5
True

Take the molecule Cc1cc(I)ccc1Nc1c(C(=O)NOCC2CC2)cc(F)c(F)c1F and say whether its Z-AUC is less than -0.5.
False

Is -0.5 strictly greater than the molecule's reported Z-AUC? molecule: Cn1cc(-c2cc(Oc3cc(F)c(NC(=O)C4(C(=O)Nc5ccccc5)CC4)cc3F)ccn2)cn1
False

====

Tested on: Es-2
Experiment: Primary qHTS to identify gynecologic anti-cancer compounds using libraries of approved drugs and bioactive compounds (AID 1345084); further: nearly all actives have a fitted effect of over 55% in size
Conditions: Gynecologic cancer cell panel viability, ATPlite luminescence, 48 h; series mostly up to 57.5 µM
From the text: National Center for Advancing Translational Sciences [NCATS] Assay Overview: Chemotherapeutic drug responses vary from cancer to cancer and from patient to patient. […] ATPlite is a luminescence based assay reliant on the conversion of a luciferase substrate to light in the presence of ATP. As a cytotoxic compound will suppress growth and decrease the number of cells, the concentration of ATP will decrease, and less light signal will be detected in the well. […]
Records with an inconclusive call do not appear. Calls of active or inactive are those of the source. Calls follow the shape of the dose curve; as a rule, active = well fitted cell-killing curve with a large enough effect; inconclusive = small, poorly fitted or top-dose-only effect, or effect the other way; inactive = flat fitted curve, though single readings scatter.
Hi there, use one of these labels in your reply, thanks! Yes for active, No for inactive

[[record]]
compound = "COc1cc(O)ccc1OCCNCC(O)COc1cccc2[nH]c3ccccc3c12 (centres undefined)"
measuredtarget = "Es-2"
assignedclass = "No"


Identify the outcome logged in this assay for the compound shown: COc1cc(-c2cc(-c3ccc(N4CCNCC4)cc3)cnc2C)cc(OC)c1OC
No

Query: recorded result category for Fc1ccccc1CNCc1ccc(-c2ccnc3[nH]ccc23)cc1 in this test
No

Please let me know the test result on file for Cn1nccc1Nc1nccc(-c2ccn([C@H](CO)c3ccc(Cl)c(F)c3)c(=O)c2)n1 .
No

====

Assay: qHTS for inhibitors of ER calcium dysfunction: SERCaMP assay screened against the NCATS CANVASS Library (AID 1347393); further: nearly all actives have a fitted effect of over 40% in size; further: potency means the concentration at half of the fitted maximal effect
Conditions: SH-SY5Y GLuc-SERCaMP (Gaussia luciferase released on ER calcium loss) secretion, thapsigargin, luminescence; series mostly up to 76.6 µM
Inconclusive results are not listed. Active and inactive are the calls of the source. Calls come from the whole dose curve; as a rule, active = well fitted inhibition curve with a large enough effect; inconclusive = small, poorly fitted or top-dose-only effect; inactive = no such curve, though single readings can be large or run the other way.
resultType: Potency

[[record]]
compound = "C=C(C)C(=O)O[C@H]1C[C@H](C)[C@@H](OC(C)=O)CC[C@@]2(C)O[C@@H]2[C@H]2OC(=O)C(COC(C)=O)=C12"
observedmeasurement = "0.86 µM (active)"

[[record]]
compound = "CCCCCCCCCCCCCCCC(=O)OC/C=C(\\C)CCCC(C)CC(C)C(C)C (stereo not drawn)"
observedmeasurement = "inactive"

[[record]]
compound = "C/C(=C\\[C@H](C)C(=O)CCCC1CC(=O)NC(=O)C1)C(O)[C@@H](C)[C@H](O)C/C=C/CC/C=C/C(=O)O (stereo partly drawn)"
observedmeasurement = "inactive"

[[record]]
compound = "COc1c(O)cc2oc(-c3ccccc3)cc(=O)c2c1O"
observedmeasurement = "34.3 µM (active)"


Field request: Potency | item: CO[C@H]1/C=C/CC[C@@H](S[C@@H]2O[C@H](CO)[C@@H](O)[C@H](O)[C@H]2O)CC(=O)O[C@@H](/C(C)=C/[C@H](C)C(=O)CCCC2CC(=O)NC(=O)C2)[C@@H](C)[C@@H]1O
inactive

Requested read-out: Potency. Entry: CCCCCCCCC[C@@H]1C[C@@H]2CC[C@H]3[C@@H](C(=O)OCCCCN=C(N)N)[C@@H](C)N=C(N1)N23
inactive

Entry C=C1C[C@@]23C=CC(=O)[C@@](C)(CCC(=O)Nc4c(O)ccc(C(=O)O)c4O)C2C[C@@H]1CC3O (stereo partly drawn) has what Potency?
inactive

I am curious: what Potency value has been reported for C/C=C/c1cc(OC)c2c(c1)[C@@H](C)[C@H](c1ccc(O)c(OC)c1)O2 ?
24.3 µM (active)
